Molecular target: Bromodomain-containing protein 4 (Homo sapiens, UniProt O60885)
Test: Binding affinity to human BRD4 assessed as change in melting temperature at 10 uM by differential scanning fluorimetry
Metric: ΔTm (°C)

* COC(=O)c1ccnc(-c2cc(C(C)=O)n3ccc(N4CCOCC4)cc23)c1 | 0.075
* CC(=O)c1cc(-c2cccc3nccn23)c2cc(N3CCNCC3)ccn12 | 2.6
* CCCOc1ccn2c(C(C)=O)cc(-c3cc(C(=O)OC)ccn3)c2c1 | -0.24
* CCC(=O)c1cc(-c2cccc3nccn23)c2cc(N3CCN(C)CC3)ccn12 | 0.51
* O=C(c1cc(-c2cccc3nccn23)c2cc(N3CCOCC3)ccn12)C(F)(F)F | -0.4
* COc1cccc(-c2cc(C(C)=O)n3ccc(N4CCOCC4)cc23)n1 | 0.82
* CC(=O)c1cc(-c2cccc3nccn23)c2cc(N3CCN(C)CC3)ccn12 | 4.1
* CCCCC(=O)c1cc(-c2cccc3nccn23)c2cc(N3CCN(C)CC3)ccn12 | -0.78
* CC(=O)c1cc(-c2cc(C(=O)O)ccn2)c2cc(N3CCOCC3)ccn12 | -0.24
* CN1CCN(c2ccn3c(C(=O)C(F)(F)F)cc(-c4cccc5nccn45)c3c2)CC1 | -0.7
* CC(=O)c1cc(-c2ncccn2)c2cc(N3CCOCC3)ccn12 | 0.43
* CC(C)C(=O)c1cc(-c2cccc3nccn23)c2cc(N3CCN(C)CC3)ccn12 | 0.19
* CC(=O)c1cc(-c2nc3ccccc3s2)c2cc(N3CCOCC3)ccn12 | 0.55
* CC(=O)c1cc(-c2ncc(C)cc2F)c2cc(N3CCOCC3)ccn12 | -0.42
* CC(=O)c1cc(-c2ccccn2)c2cc(N3CCNCC3)ccn12 | 4
* CC(=O)c1cc(-c2cccc3nccn23)c2cc(N3CCOCC3)ccn12 | 1.3
* CC(=O)c1cc(-c2ccccn2)c2cc(N3CCOCC3)ccn12 | 1.9
* CN1CCN(c2ccn3c(C(=O)C4CC4)cc(-c4cccc5nccn45)c3c2)CC1 | -0.65
* CC(=O)c1cc(-c2ccc(Cl)cn2)c2cc(N3CCOCC3)ccn12 | -0.39
* CC(=O)c1cc(-c2ccc(C(F)(F)F)cn2)c2cc(N3CCOCC3)ccn12 | -4
* CC(=O)c1cc(-c2cccc(Cl)n2)c2cc(N3CCOCC3)ccn12 | 0.28
